The measurements presented in this section are drawn from ChEMBL document CHEMBL3792350.

experiment: Half life in Sprague-Dawley rat at 1 mg/kg, iv as bolus dose by LC-MS/MS analysis; type: ADME, organism-based; conditions: in vivo
outcome measure: half-life (min)
Please reply with the bare figure in min and do not write the unit itself.

GET /values?readout=half-life&item= COc1ccc(C(C)(C)c2cnc(SCCOc3ccc(-n4ccnc4)cc3)n2-c2ccc(F)cc2)cc1OC 19.2

====

assay: Cmax in Sprague-Dawley rat at 3 mg/kg administered via oral gavage by LC-MS/MS analysis; assay type: ADME, organism-based; design: dose 3 mg/kg, route oral; conditions: in vivo
outcome measure: Cmax (ng/mL)
Please reply with the bare figure in ng/mL and do not write the unit itself.

GET /values?readout=Cmax&item= COc1ccc(C(C)(C)c2cnc(SCCOc3ccc(-n4ccnc4)cc3)n2-c2ccc(F)cc2)cc1OC 148

====

test: Clearance in Sprague-Dawley rat at 1 mg/kg, iv as bolus dose by LC-MS/MS analysis; assay type: ADME, organism-based; conditions: in vivo
outcome measure: clearance (mL/min/kg)
Please reply with the bare figure in mL/min/kg and do not write the unit itself.

GET /values?readout=clearance&item= COc1ccc(C(C)(C)c2cnc(SCCOc3ccc(-n4ccnc4)cc3)n2-c2ccc(F)cc2)cc1OC 79.7

====

assay: Half life in C57Bl/6 mouse at 1 mg/kg, iv as bolus dose by LC-MS/MS analysis; type: ADME, organism-based; conditions: in vivo
outcome measure: half-life (min)
Please reply with the bare figure in min and do not write the unit itself.

COc1ccc(C(C)(C)c2cnc(SCc3c(F)cccc3Cl)n2-c2ccc(F)cc2)cc1OC = 45.6

Turning to the following compound.
GET /values?readout=half-life&item= COc1ccc(C(C)(C)c2cnc(SCCOc3ccc(-n4ccnc4)cc3)n2-c2ccc(F)cc2)cc1OC 19.8

====

Parameter bioavailability: see the listing below.
assay: Oral bioavailability in C57Bl/6 mouse at 3 mg/kg administered via oral gavage by LC-MS/MS analysis; format: ADME, organism-based; details: in vivo

COc1ccc(C(C)(C)c2cnc(SCCOc3ccc(-n4ccnc4)cc3)n2-c2ccc(F)cc2)cc1OC = 71%

Turning to the following compound.
GET /values?readout=bioavailability&item= COc1ccc(C(C)(C)c2cnc(SCc3c(F)cccc3Cl)n2-c2ccc(F)cc2)cc1OC 7%

====

assay: AUC in C57Bl/6 mouse at 3 mg/kg administered via oral gavage by LC-MS/MS analysis; type: ADME, organism-based; conditions: in vivo
outcome measure: AUC (ng·h/mL)
Please reply with the bare figure in ng·h/mL and do not write the unit itself.

COc1ccc(C(C)(C)c2cnc(SCCOc3ccc(-n4ccnc4)cc3)n2-c2ccc(F)cc2)cc1OC = 754

Turning to the following compound.
GET /values?readout=AUC&item= COc1ccc(C(C)(C)c2cnc(SCc3c(F)cccc3Cl)n2-c2ccc(F)cc2)cc1OC 73.5

====

Parameter clearance: see the listing below.
assay: Clearance in C57Bl/6 mouse at 1 mg/kg, iv as bolus dose by LC-MS/MS analysis; type: ADME, organism-based; details: in vivo
Please reply with the bare figure in mL/min/kg and do not write the unit itself.

COc1ccc(C(C)(C)c2cnc(SCCOc3ccc(-n4ccnc4)cc3)n2-c2ccc(F)cc2)cc1OC = 47.3

Turning to the following compound.
GET /values?readout=clearance&item= COc1ccc(C(C)(C)c2cnc(SCc3c(F)cccc3Cl)n2-c2ccc(F)cc2)cc1OC 45.5
